Item-by-item account of microsomal CLint
assay: Metabolism studies in human liver microsomes; type: in vitro ADME; settings: human, liver microsomes

Solved cases below.
O=C(COCc1ccccn1)C12CC3CC(CC(C3)C1)C2 | 8.9 µL/min/mg
O=C(COCc1cccnc1)C12CC3CC(CC(C3)C1)C2 | 3.7 µL/min/mg

microsomal CLint for O=C(C[S+]([O-])c1ccccn1)C12CC3CC(CC(C3)C1)C2 (stereo not drawn) ?
31 µL/min/mg

====

biological target: human cytochrome P450 3A4-BQ (Homo sapiens)
Sequence (P08684 whole entry): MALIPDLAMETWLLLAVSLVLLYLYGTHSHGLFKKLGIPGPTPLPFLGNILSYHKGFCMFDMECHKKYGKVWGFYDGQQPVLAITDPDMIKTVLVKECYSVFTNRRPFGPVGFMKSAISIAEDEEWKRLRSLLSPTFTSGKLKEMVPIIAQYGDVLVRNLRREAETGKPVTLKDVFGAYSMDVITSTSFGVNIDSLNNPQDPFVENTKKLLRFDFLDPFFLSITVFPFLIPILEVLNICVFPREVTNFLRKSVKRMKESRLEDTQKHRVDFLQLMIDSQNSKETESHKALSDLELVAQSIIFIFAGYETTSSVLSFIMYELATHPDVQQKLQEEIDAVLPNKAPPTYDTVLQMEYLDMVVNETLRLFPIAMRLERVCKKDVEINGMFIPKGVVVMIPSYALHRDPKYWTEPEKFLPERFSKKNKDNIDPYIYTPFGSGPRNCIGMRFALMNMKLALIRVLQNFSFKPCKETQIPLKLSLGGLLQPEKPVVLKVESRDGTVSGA
observation.type: IC50

Solved cases below.
O=C(COCc1ccccn1)C12CC3CC(CC(C3)C1)C2 | 78 µM
O=C(COCc1cccnc1)C12CC3CC(CC(C3)C1)C2 | 1.6 µM
O=C(C[S+]([O-])c1ccncc1)C12CC3CC(CC(C3)C1)C2 (stereo not shown) | > 100 µM

Request - read-out IC50 | tested on human cytochrome P450 3A4-BQ (Homo sapiens) | compound "O=C(CS(=O)(=O)Cc1ccccn1)C12CC3CC(CC(C3)C1)C2"
24 µM

====

Item-by-item account of melting point

Solved cases below.
O=C(COc1ccc(C(F)(F)F)cn1)C12CC3CC(CC(C3)C1)C2 | 102 to 104 °C
Cc1cccc(S(=O)(=O)CC(=O)C23CC4CC(CC(C4)C2)C3)n1 | 151 to 152 °C
O=C(NCC(=O)C12CC3CC(CC(C3)C1)C2)c1ccncc1 | 147 to 149 °C

melting point for Cc1cccc([S+]([O-])CC(=O)C23CC4CC(CC(C4)C2)C3)n1 (centres unmarked) ?
75 to 76 °C

melting point for "Cc1cccc(C(=O)NCC(=O)C23CC4CC(CC(C4)C2)C3)n1" ?
110 to 111 °C

melting point for "CCNC(=O)c1ccc(SCC(=O)C23CC4CC(CC(C4)C2)C3)nc1" ?
136 to 137 °C

melting point for "O=C(CSCc1cccnc1)C12CC3CC(CC(C3)C1)C2" ?
45 to 47 °C

melting point for "O=C(O)c1ccc(SCC(=O)C23CC4CC(CC(C4)C2)C3)nc1" ?
174 to 176 °C

melting point for "O=C(COCc1ccc(C(F)(F)F)nc1)C12CC3CC(CC(C3)C1)C2" ?
106 to 109 °C

melting point for "CN(C)C(=O)c1ccc(SCC(=O)C23CC4CC(CC(C4)C2)C3)nc1" ?
63 to 65 °C

melting point for "O=C(CS(=O)(=O)c1ccncc1)C12CC3CC(CC(C3)C1)C2" ?
143 to 144 °C

====

IC50 data for human cytochrome P450 2C19 (Homo sapiens, UniProt P33261) follow.
Enter your answer as a number in µM; do not include the unit.

O=C(CS(=O)(=O)Cc1ccccn1)C12CC3CC(CC(C3)C1)C2 [Compound 43] | 24

As a next step, examine the compound that follows.
IC50 for O=C(COCc1cccnc1)C12CC3CC(CC(C3)C1)C2 [Compound 31] ?
46

====

biological target: human cytochrome P450 1A2 (Homo sapiens); experiment: Inhibition of human cytochrome P450 1A2; format: in vitro ADME
Sequence (P05177 whole entry): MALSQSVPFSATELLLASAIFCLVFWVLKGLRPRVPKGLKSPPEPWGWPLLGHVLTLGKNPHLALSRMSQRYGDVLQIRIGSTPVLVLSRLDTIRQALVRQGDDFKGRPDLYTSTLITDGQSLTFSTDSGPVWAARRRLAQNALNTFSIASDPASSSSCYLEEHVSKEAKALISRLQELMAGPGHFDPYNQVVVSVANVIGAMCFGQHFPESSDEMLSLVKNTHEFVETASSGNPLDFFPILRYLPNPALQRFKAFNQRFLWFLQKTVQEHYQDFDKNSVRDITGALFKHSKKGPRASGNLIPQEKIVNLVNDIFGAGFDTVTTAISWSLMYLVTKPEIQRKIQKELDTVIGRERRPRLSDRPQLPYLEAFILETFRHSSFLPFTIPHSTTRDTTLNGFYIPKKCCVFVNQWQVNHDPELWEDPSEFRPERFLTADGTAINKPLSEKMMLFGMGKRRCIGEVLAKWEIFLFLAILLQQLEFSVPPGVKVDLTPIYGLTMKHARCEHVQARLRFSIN
observation.type: IC50 (µM)
Enter your answer as a number in µM; do not include the unit.

O=C(COCc1cccnc1)C12CC3CC(CC(C3)C1)C2 | 23

IC50 for "O=C(CS(=O)(=O)Cc1ccccn1)C12CC3CC(CC(C3)C1)C2" ?
36
